Every entry's value here was drawn from patent US20260242478A1.

experimental-target: Anti-CD28 scFv (VH - linker 1 - VL) (biotinylated (site not stated))
Sequence (scFv, as listed by the source): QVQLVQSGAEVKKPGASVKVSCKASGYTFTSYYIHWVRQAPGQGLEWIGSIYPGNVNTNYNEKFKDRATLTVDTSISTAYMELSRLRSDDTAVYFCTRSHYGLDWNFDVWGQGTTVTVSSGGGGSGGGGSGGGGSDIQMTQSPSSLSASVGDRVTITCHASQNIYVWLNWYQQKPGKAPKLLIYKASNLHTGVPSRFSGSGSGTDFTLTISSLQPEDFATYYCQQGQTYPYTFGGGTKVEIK
measurement-notes: clonal phage ELISA on anti-CD28 scFv plate; wells pre-incubated with soluble CD28 as competitor
Each entry gets NOT MET if its CD28 scFv signal in presence of CD28 stays under 0.1, and MET if its CD28 scFv signal in presence of CD28 is 0.1 or above.

# example entries with known answers
MDWCPRARWHDCFF (Clone of the Peptide-9 optimisation library) [Phage-445] = MET
MDWCPRFWWHECYA (Clone of the Peptide-9 optimisation library) [Phage-451] = MET
IYWCPIDRWNDCYN (Clone of the Peptide-9 optimisation library) [Phage-442] = MET
EDWCPTDVWPYCFS (Clone of the Peptide-9 optimisation library) [Phage-450] = MET
MVDCPLISFDECLA (Clone of the Peptide-9 optimisation library) [Phage-449] = NOT MET

Q: Please indicate if the recorded CD28 scFv signal in presence of CD28 for MDWCPRDRWDDCFN (Clone of the Peptide-9 optimisation library) [Phage-446] meets or exceeds 0.1.
Result: NOT MET

Q: Next binder: MDWCPMTRWNDCYF (Clone of the Peptide-9 optimisation library) [Phage-443]
Result: NOT MET
